Recorded pEC50 for the following compounds
- targetUnderTest: CFTR-R117H (Homo sapiens, UniProt P13569, R117H)
- Sequence (P13569 whole entry R117H): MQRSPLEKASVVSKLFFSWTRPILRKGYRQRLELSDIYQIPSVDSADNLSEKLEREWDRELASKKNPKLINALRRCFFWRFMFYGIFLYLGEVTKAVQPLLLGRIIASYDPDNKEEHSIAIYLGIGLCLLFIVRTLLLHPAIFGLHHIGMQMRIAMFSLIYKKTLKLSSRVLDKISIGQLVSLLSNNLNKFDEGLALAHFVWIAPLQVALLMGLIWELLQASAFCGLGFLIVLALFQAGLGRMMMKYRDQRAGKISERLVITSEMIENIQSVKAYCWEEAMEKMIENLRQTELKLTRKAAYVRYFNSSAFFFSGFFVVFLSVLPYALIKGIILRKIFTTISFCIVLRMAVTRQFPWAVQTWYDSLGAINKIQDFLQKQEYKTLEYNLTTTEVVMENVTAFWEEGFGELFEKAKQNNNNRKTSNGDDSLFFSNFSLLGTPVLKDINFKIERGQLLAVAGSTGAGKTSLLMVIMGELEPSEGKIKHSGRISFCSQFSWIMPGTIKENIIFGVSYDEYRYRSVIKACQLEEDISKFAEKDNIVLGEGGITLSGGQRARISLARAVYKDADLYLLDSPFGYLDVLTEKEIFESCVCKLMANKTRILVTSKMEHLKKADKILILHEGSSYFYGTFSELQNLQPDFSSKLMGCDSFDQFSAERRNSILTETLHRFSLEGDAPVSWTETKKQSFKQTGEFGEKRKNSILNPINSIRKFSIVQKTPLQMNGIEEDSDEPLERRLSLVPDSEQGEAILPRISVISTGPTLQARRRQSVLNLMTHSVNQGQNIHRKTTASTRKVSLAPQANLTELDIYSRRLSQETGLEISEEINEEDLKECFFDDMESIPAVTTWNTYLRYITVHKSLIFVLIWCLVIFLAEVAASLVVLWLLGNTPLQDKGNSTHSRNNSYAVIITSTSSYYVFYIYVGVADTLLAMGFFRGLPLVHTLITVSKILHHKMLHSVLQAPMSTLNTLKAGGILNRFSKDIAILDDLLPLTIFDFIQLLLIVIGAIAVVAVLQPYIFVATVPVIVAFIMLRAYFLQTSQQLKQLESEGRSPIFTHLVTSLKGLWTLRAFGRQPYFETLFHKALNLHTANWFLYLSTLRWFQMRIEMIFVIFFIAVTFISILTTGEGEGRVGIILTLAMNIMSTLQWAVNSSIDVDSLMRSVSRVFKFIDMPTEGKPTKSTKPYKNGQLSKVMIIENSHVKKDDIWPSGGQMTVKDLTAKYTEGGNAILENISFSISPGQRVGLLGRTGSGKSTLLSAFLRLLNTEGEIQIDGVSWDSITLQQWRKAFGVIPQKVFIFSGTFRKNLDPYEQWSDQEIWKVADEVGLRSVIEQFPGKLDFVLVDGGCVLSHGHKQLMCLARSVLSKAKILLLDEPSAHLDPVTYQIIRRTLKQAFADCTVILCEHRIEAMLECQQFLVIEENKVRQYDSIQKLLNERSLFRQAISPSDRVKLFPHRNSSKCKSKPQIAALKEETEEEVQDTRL
- assayInfo: YFP-halide influx assay for the CFTR-R117H
The scale used: pEC50 is minus the common logarithm of the concentration in molar units.

Record excerpt, results attached:
{"columns": ["compound", "pEC50"],
 "data": [
  ["Nc1cc(S(=O)(=O)c2ccc(F)cc2)c(-c2ccc(F)cc2)nc1C(=O)NC[C@@H](O)C(F)(F)F", 6.65],
  ["CC(C)NC(=O)CNC(=O)c1ncc(S(=O)(=O)c2ccc(OC(F)(F)F)cc2)cc1N", 6.45],
  ["C[C@H](O)CNC(=O)c1ncc(S(=O)(=O)c2ccc(C(F)(F)F)cc2)cc1N", 6.30]
]}

Below: the item to evaluate.
Prompt line: Could you share which pEC50 value was measured for CC(C)OCC(O)CNC(=O)c1ncc(S(=O)(=O)c2ccc(C(F)(F)F)cc2)cc1N (stereo not shown) ?
Response line: 7.01

Cited source: patent US10047051B2
